target: human FPR1 (Homo sapiens (Human)); assay: FPR1 cyclic adenosine monophosphate (cAMP) assay; details: CHO cells overexpressing human FPR1; forskolin 10 μM; inhibition of cAMP production; read-out: hFPR1 cAMP EC50
Sequence (P21462 whole entry): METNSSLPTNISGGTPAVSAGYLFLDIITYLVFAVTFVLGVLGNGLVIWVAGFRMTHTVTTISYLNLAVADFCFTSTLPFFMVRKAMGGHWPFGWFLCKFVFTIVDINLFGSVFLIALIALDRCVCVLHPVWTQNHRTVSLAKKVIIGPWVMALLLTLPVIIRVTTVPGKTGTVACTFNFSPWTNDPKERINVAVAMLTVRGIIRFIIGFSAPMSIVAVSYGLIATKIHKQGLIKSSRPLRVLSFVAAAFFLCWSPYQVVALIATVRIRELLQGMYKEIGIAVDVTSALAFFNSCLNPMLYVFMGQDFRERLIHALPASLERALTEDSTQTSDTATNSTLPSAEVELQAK
pEC50: −log10 of the molar value.
Measurement Type: pEC50

{"Compound": "O=C(Nc1ccc(C(F)(F)F)cc1)N[C@@H]1CCCN(c2ccc(N3CCCCC3=O)cc2)C1=O", "Assay Value": 6.39}

a = COC[C@@H]1CCCN1c1ccc(N2CCC[C@@H](NC(=O)Nc3ccc(Cl)cc3)C2=O)cc1
b = O=C(Nc1ccc(C(F)(F)F)cc1)N[C@@H]1CCCN(c2ccc(N3CCOCC3)nc2)C1=O
c = COCC1CCCCN1c1ccc(N2CCC[C@@H](NC(=O)Nc3ccc(C(F)(F)F)cc3)C2=O)cc1 (stereo partly shown)
d = CS(=O)(=O)N1CCN(c2ccc(N3CCC[C@@H](NC(=O)Nc4ccc(C(F)(F)F)cc4)C3=O)cc2)CC1
e = CC(=O)N[C@@H]1CCN(c2ccc(N3CCC[C@@H](NC(=O)Nc4ccc(C(F)(F)F)cc4)C3=O)cc2)C1
Task item: Arrange by pEC50, high to low. Form entry: ranked labels (order as requested).
Reply: a, c, e, b, d
(a: 7.92, c: 7.44, e: 6.72, b: 6.04, d: 5.66)
